For each of the compounds below, state its CLint scaled.
experiment: Intrinsic clearance in human liver microsomes; assay type: ADME; conditions: read-out: CLH
Kindly answer with a numeric value in mL/min/kg, unit omitted.

**Q:** Write down CLint scaled measured for item `COc1ccc2c(c1)nc(CCn1c(=O)n(C)c3cccnc31)n2-c1cccnc1`
**A:** 310

**Q:** Write down CLint scaled measured for item `COc1cccc2c1nc(CCn1c(=O)n(C)c3cccnc31)n2-c1ccccc1`
**A:** 460

**Q:** Write down CLint scaled measured for item `COc1ccnc2c1nc(CCn1c(=O)n(C)c3nccnc31)n2-c1ccccc1`
**A:** 100

###

assay: Lipophilicity, log D of the compound at pH 7.4; assay type: physicochemical; conditions: buffer
Cut-off 2 on logD, inclusive. At or above means TRUE; below means FALSE.

**Q:** Could you tell me if the measured logD of `COc1ccc2c(c1)nc(CCn1c(=O)n(C)c3cccnc31)n2-c1ccccn1` reaches 2 or more?
**A:** FALSE

**Q:** Could you tell me if the measured logD of `COc1ccnc2c1nc(CCn1c(=O)n(C)c3cccnc31)n2-c1ccccc1` reaches 2 or more?
**A:** FALSE

**Q:** Could you tell me if the measured logD of `COc1ccnc2c1nc(CCn1c(=O)n(C)c3c(C)ccnc31)n2-c1ccccc1` reaches 2 or more?
**A:** FALSE

**Q:** Could you tell me if the measured logD of `COc1ccc2c(c1)nc(CCn1c(=O)n(C)c3cccnc31)n2-c1ccncc1` reaches 2 or more?
**A:** FALSE

**Q:** Could you tell me if the measured logD of `Cc1ccc2c(c1)nc(CCn1c(=O)c(C)nc3cccnc31)n2-c1ccccc1` reaches 2 or more?
**A:** TRUE

**Q:** Could you tell me if the measured logD of `COc1ccc2c(c1)nc(CCn1c(=O)n(C)c3cccnc31)n2-c1cccnc1` reaches 2 or more?
**A:** FALSE

**Q:** Could you tell me if the measured logD of `Cc1ccc2c(c1)nc(CCn1c(=O)n(C)c3cccnc31)n2-c1ccccc1` reaches 2 or more?
**A:** TRUE

###

For each of the molecules below, state its pIC50.
molecular target: UniProt:Q9Y233; test: Inhibition of human recombinant PDE10A expressed in Sf9 insect cell system assessed as inhibition of cAMP hydrolysis preincubated for 30 mins before substrate addition measured after 60 mins by HTRF assay
Sequence (Q9Y233 whole entry): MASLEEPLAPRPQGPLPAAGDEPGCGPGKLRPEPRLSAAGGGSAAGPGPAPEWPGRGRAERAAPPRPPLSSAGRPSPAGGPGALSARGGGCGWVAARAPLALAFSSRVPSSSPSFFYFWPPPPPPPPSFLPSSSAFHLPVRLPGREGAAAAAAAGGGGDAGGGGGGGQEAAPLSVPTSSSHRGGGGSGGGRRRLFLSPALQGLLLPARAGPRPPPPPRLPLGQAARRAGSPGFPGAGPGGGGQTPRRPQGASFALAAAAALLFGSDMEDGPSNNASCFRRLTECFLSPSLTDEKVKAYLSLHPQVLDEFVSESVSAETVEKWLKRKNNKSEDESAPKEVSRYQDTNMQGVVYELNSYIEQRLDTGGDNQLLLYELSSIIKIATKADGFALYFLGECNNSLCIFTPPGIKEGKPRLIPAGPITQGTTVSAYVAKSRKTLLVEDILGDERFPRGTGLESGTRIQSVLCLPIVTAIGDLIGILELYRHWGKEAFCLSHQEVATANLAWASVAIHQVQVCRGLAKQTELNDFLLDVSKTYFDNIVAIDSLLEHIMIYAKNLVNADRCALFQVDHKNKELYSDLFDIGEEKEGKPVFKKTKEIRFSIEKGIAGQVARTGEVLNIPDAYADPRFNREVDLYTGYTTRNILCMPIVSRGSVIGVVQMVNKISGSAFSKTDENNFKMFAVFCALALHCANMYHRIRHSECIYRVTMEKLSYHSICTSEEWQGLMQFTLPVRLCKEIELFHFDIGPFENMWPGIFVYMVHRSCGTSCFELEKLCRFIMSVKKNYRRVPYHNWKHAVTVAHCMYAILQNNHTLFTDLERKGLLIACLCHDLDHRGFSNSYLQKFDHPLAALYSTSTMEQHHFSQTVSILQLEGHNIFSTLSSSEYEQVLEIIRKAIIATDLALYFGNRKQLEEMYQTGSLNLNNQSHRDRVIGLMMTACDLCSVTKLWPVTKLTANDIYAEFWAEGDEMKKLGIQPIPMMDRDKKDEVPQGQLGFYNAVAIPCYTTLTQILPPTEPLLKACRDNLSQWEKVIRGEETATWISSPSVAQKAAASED
// field semantics: pIC50 = negative decimal log of concentration (mol/L)

**Q:** Write down pIC50 measured for item `Cc1ccc2c(c1)nc(CCc1nc(C)c3ccccn13)n2-c1ccccc1`
**A:** 6.23

**Q:** Write down pIC50 measured for item `COc1cccc2c1nc(CCn1c(=O)n(C)c3cccnc31)n2-c1ccccc1`
**A:** 8.14

**Q:** Write down pIC50 measured for item `COc1ccc2c(c1)nc(CCn1c(=O)n(C)c3cccnc31)n2-c1ccccc1`
**A:** 8.20

**Q:** Write down pIC50 measured for item `COc1ccnc2c1nc(CCn1c(=O)n(C)c3nccnc31)n2-c1ccccc1`
**A:** 6.95

**Q:** Write down pIC50 measured for item `COc1ccc2c(c1)nc(CCn1c(=O)n(C)c3cccnc31)n2-c1cccnc1`
**A:** 7.43

**Q:** Write down pIC50 measured for item `COc1ccc2c(c1)nc(CCn1c(=O)n(C)c3cccnc31)n2-c1ccncc1`
**A:** 7.01

**Q:** Write down pIC50 measured for item `COc1ccnc2c1nc(CCn1c(=O)n(C)c3c(C)ccnc31)n2-c1ccccc1`
**A:** 8.02

###

biological target: UniProt Q9Y233; assay: Inhibition of human recombinant PDE10A expressed in Sf9 insect cell system assessed as inhibition of cAMP hydrolysis preincubated for 30 mins before substrate addition measured after 60 mins by HTRF assay
pIC50: −log10 of the molar value.
Cut-off 7 on pIC50, inclusive. At or above means Criterion met; below means Criterion not met.

**Q:** Could you tell me if the measured pIC50 of `Cc1ccc2c(c1)nc(CCn1nc(C)c3cccnc31)n2-c1ccccc1` reaches 7 or more?
**A:** Criterion met

**Q:** Could you tell me if the measured pIC50 of `Cc1ccc2c(c1)nc(CCc1nc(C)c3ncccn13)n2-c1ccccc1` reaches 7 or more?
**A:** Criterion not met

**Q:** Could you tell me if the measured pIC50 of `Cc1ccc2c(c1)nc(CCc1nc(C)c3cccnn13)n2-c1ccccc1` reaches 7 or more?
**A:** Criterion met

**Q:** Could you tell me if the measured pIC50 of `COc1ccc2[nH]c(CCc3nc(C)c4ccccn34)nc2c1` reaches 7 or more?
**A:** Criterion not met

**Q:** Could you tell me if the measured pIC50 of `Cc1ccc2c(c1)nc(CCn1c(=O)n(C)c3cccnc31)n2-c1ccccc1` reaches 7 or more?
**A:** Criterion met

###

experiment: Intrinsic clearance in human liver microsomes; format: ADME; settings: read-out: CLH
Readout Label: CLint scaled

**Q:** Write down CLint scaled measured for item `Cc1ccc2c(c1)nc(CCn1nc(C)c3cccnc31)n2-c1ccccc1`
**A:** 910 mL/min/kg

**Q:** Write down CLint scaled measured for item `Cc1ccc2c(c1)nc(CCn1c(=O)c(C)nc3cccnc31)n2-c1ccccc1`
**A:** > 1000 mL/min/kg

**Q:** Write down CLint scaled measured for item `Cc1ccc2c(c1)nc(CCc1ncc3cccnn13)n2-c1ccccc1`
**A:** > 1000 mL/min/kg

**Q:** Write down CLint scaled measured for item `COc1ccc2c(c1)nc(CCn1c(=O)n(C)c3cccnc31)n2-c1ccncc1`
**A:** 180 mL/min/kg

**Q:** Write down CLint scaled measured for item `Cc1cnc2c(c1)nc(CCn1c(=O)n(C)c3cccnc31)n2-c1ccccc1`
**A:** 480 mL/min/kg

**Q:** Write down CLint scaled measured for item `Cc1ccc2c(c1)nc(CCn1c(=O)n(C)c3cccnc31)n2-c1ccccc1`
**A:** 330 mL/min/kg

**Q:** Write down CLint scaled measured for item `Cc1ccc2c(c1)nc(CCc1nc(C)c3ccccn13)n2-c1ccccc1`
**A:** > 1000 mL/min/kg

**Q:** Write down CLint scaled measured for item `COc1ccc2c(c1)nc(CCn1c(=O)n(C)c3cccnc31)n2-c1ccccc1`
**A:** 320 mL/min/kg

**Q:** Write down CLint scaled measured for item `COc1ccc2c(c1)nc(CCn1c(=O)n(C)c3cccnc31)n2-c1ccccn1`
**A:** 310 mL/min/kg

**Q:** Write down CLint scaled measured for item `COc1ccnc2c1nc(CCn1c(=O)n(C)c3cccnc31)n2-c1ccccc1`
**A:** 130 mL/min/kg

**Q:** Write down CLint scaled measured for item `COc1ccnc2c1nc(CCn1c(=O)n(C)c3c(C)ccnc31)n2-c1ccccc1`
**A:** 260 mL/min/kg
